- system: human synthetic Aβ 1-40 fibrils (Homo sapiens)
- Construct: human synthetic Aβ 1-40 fibrils
- Sequence (P05067 672-711 limits assumed): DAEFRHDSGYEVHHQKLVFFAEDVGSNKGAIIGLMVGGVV
- assay text: Saturation binding experiments
- condition label: amyloid Aβ 1-40 fibrils in vitro; two site binding, site 1; AVG; read-out: Kd 1
measured metric: Kd (nM)
Report only the number, with the unit nM understood.

Give the measured Kd of CNc1ccc(-c2nc3ccc(O)cc3o2)cn1 [Example 5] .
5.33

====

- system: synthetic Aβ 1-40 (Homo sapiens)
- Construct: using synthetic Aβ 1-40 in 2.7 nM of
- Sequence (P05067 672-711 limits assumed): as above
- assay text: Competition binding assay ([3H]PIB as radioligand)
- condition label: [3H]PIB as radioligand; Table 2
measured metric: pIC50
API: returns pIC50 as number; meaning -log10 of concentration in mol/L.

Give the measured pIC50 of COc1ccc2nc(-c3ccc(N(C)C(C)=O)nc3)oc2c1 [Example 4] .
4.81

Similarly, CNc1ccc(-c2nc3ccc(OC)cc3o2)cn1 [Example 3] ?
6.73

Similarly, COc1ccc2nc(-c3ccc(N(C)C)nc3)oc2c1 [Example 1] ?
6.69

Similarly, CN(C)c1ccc(-c2nc3ccc(O)cc3o2)cn1 [Example 2] ?
7.07

Similarly, CNc1ccc(-c2nc3ccc(O)cc3o2)cn1 [Example 5] ?
6.74

Attribution: patent US7670591B2
